- SUBJECT OF TEST: UniProtKB Q02769
- PROTOCOL NOTES: concentration required to inhibit rat liver squalene synthase enzyme relative to control (L-694,599)
ASSAY READOUT: Relative activity

COMPOUND	SUBJECT OF TEST	Relative activity
C=C(CCC12OC(C(=O)O)C(O)(C(=O)O)C(C(=O)O)(O1)[C@H](OCCCCCCCCCCCC)[C@H]2O)[C@@H](OC(C)=O)[C@H](C)Cc1ccccc1 (stereo partly drawn)	UniProtKB Q02769	2.5

a = C=C(CCC12OC(C(=O)O)C(OCCCCCCCCOc3ccccc3)(C(=O)O)C(C(=O)O)(O1)[C@H](O)[C@H]2O)[C@@H](OC(C)=O)[C@H](C)Cc1ccccc1 (stereo partly drawn)
b = C=C(CCC12OC(C(=O)O)C(O)(C(=O)O)C(C(=O)O)(O1)[C@H](OC(=O)OCCCCCCCCCCCC)[C@H]2O)[C@@H](OC(C)=O)[C@H](C)Cc1ccccc1 (stereo partly drawn)
When their Relative activity values are compared, which is larger, a or b ? Write the label of whichever entry you select.
b

* * *

- SUBJECT OF TEST: Squalene synthase (Rattus norvegicus, UniProt Q02769)
- Sequence (Q02769 whole entry): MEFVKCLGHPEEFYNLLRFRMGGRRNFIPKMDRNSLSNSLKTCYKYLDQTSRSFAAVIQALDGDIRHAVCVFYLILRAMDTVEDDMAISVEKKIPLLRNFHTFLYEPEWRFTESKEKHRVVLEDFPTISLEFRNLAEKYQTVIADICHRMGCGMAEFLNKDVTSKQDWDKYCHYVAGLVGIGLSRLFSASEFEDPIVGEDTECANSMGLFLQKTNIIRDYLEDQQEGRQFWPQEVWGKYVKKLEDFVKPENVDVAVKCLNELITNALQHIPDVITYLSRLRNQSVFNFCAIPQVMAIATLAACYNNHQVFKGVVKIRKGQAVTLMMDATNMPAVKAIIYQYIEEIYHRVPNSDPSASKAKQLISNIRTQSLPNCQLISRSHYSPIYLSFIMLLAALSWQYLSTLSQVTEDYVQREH
- PROTOCOL NOTES: Tested for inhibition against squalene synthase enzyme in rat liver
ASSAY READOUT: IC50 (nM)

Solved cases (3 shown):
COMPOUND	ASSAY READOUT	ENDPOINT UNIT	MEASURED
C=C(CCC12OC(C(=O)O)C(O)(C(=O)O)C(C(=O)O)(O1)[C@H](OCCC)[C@H]2O)[C@@H](OC(C)=O)[C@H](C)Cc1ccccc1 (stereo partly specified)	IC50	nM	10
C=C(CCC12OC(C(=O)O)C(O)(C(=O)O)C(C(=O)O)(O1)[C@H](OC(=O)CC(C)(C)C)[C@H]2O)[C@@H](OC(C)=O)[C@H](C)Cc1ccccc1 (stereo partly specified)	IC50	nM	2
C=C(CCC12OC(C(=O)O)C(OCCCCCCCCCCCC)(C(=O)O)C(C(=O)O)(O1)[C@H](OCCCCCCCCCCCC)[C@H]2O)[C@@H](OC(C)=O)[C@H](C)Cc1ccccc1 (stereo partly specified)	IC50	nM	17

a = C=C(CCC12OC(C(=O)O)C(O)(C(=O)O)C(C(=O)O)(O1)[C@H](OC(=O)NC1CCC1)[C@H]2O)[C@@H](OC(C)=O)[C@H](C)Cc1ccccc1 (stereo partly specified)
b = C=C(CCC12OC(C(=O)O)C(O)(C(=O)O)C(C(=O)O)(O1)[C@H](OC(=O)NCCC[C@@H](C)C[C@@H](C)CC)[C@H]2O)[C@@H](OC(C)=O)[C@H](C)Cc1ccccc1 (stereo partly specified)
c = C=C(CCC12OC(C(=O)O)C(O)(C(=O)O)C(C(=O)O)(O1)[C@H](OC(=O)NCCCCCCCCCCCOc1ccccc1)[C@H]2O)[C@@H](OC(C)=O)[C@H](C)Cc1ccccc1 (stereo partly specified)
With regard to IC50, arrange the entries in ascending order, please. Thanks in advance for listing the labels in the requested order.
c, b, a

* * *

- System: Cryptococcus neoformans
- PROTOCOL NOTES: Concentration required to inhibit growth of MY 1051 strain of Cryptococcus neoformans
- Assay type: functional
Measured MFC accompanies every entry in the list below.
The reply should contain only the number, in mg/L.

MOLECULE	MFC / mg/L
C=C(CCC12OC(C(=O)O)C(O)(C(=O)O)C(C(=O)O)(O1)[C@H](OC(=O)NCCCCCCCCCC)[C@H]2O)[C@@H](OC(C)=O)[C@H](C)Cc1ccccc1 (stereo partly specified)	4
C=C(CCC12OC(C(=O)O)C(O)(C(=O)O)C(C(=O)O)(O1)[C@H](OC(=O)CCCCCCCCCCC)[C@H]2O)[C@@H](OC(C)=O)[C@H](C)Cc1ccccc1 (stereo partly specified)	2
C=C(CCC12OC(C(=O)O)C(O)(C(=O)O)C(C(=O)O)(O1)[C@H](OC(=O)OCCCCCCCCCC)[C@H]2O)[C@@H](OC(C)=O)[C@H](C)Cc1ccccc1 (stereo partly specified)	8

Let me know recorded MFC for C=C(CCC12OC(C(=O)O)C(O)(C(=O)O)C(C(=O)O)(O1)[C@H](OC(=O)OCCCCCCCCCCCOc1ccccc1)[C@H]2O)[C@@H](OC(C)=O)[C@H](C)Cc1ccccc1 (stereo partly specified) , thanks.
8

Supply recorded MFC for C=C(CCC12OC(C(=O)O)C(O)(C(=O)O)C(C(=O)O)(O1)[C@H](OCCCCCCCCCCCC)[C@H]2O)[C@@H](OC(C)=O)[C@H](C)Cc1ccccc1 (stereo partly specified) here.
0.5

Identify measured MFC corresponding to C=C(CCC12OC(C(=O)O)C(O)(C(=O)O)C(C(=O)O)(O1)[C@H](OC(=O)/C=C/[C@@H](C)C[C@@H](C)CC)[C@H]2O)[C@@H](OC(C)=O)[C@H](C)Cc1ccccc1 (stereo partly specified) [ZARAGOZIC ACID A]
1

* * *

- Tested on: Candida albicans
- PROTOCOL NOTES: Concentration required to inhibit growth of MY 1750 strain of Candida albicans
- Format: functional
ASSAY READOUT: MFC (µg/mL)
Supply the numeric figure in µg/mL, leaving out any unit text.

# count of solved cases: 3
COMPOUND	SUBJECT OF TEST	MFC (µg/mL)
C=C(CCC12OC(C(=O)O)C(O)(C(=O)O)C(C(=O)O)(O1)[C@H](OC(=O)NCCCCCCCCCC)[C@H]2O)[C@@H](OC(C)=O)[C@H](C)Cc1ccccc1 (stereo partly specified)	Candida albicans	4
C=C(CCC12OC(C(=O)O)C(O)(C(=O)O)C(C(=O)O)(O1)[C@H](OC(=O)CCCCCCCCCCC)[C@H]2O)[C@@H](OC(C)=O)[C@H](C)Cc1ccccc1 (stereo partly specified)	Candida albicans	8
C=C(CCC12OC(C(=O)O)C(O)(C(=O)O)C(C(=O)O)(O1)[C@H](OC(=O)OCCCCCCCCCC)[C@H]2O)[C@@H](OC(C)=O)[C@H](C)Cc1ccccc1 (stereo partly specified)	Candida albicans	16

# return recorded MFC for entry C=C(CCC12OC(C(=O)O)C(O)(C(=O)O)C(C(=O)O)(O1)[C@H](OCCCCCCCCCCCC)[C@H]2O)[C@@H](OC(C)=O)[C@H](C)Cc1ccccc1 (stereo partly specified)
32

Note MFC for the compound shown: C=C(CCC12OC(C(=O)O)C(O)(C(=O)O)C(C(=O)O)(O1)[C@H](OC(=O)OCCCCCCCCCCCOc1ccccc1)[C@H]2O)[C@@H](OC(C)=O)[C@H](C)Cc1ccccc1 (stereo partly specified)
0.5

Look up and state reported MFC for C=C(CCC12OC(C(=O)O)C(O)(C(=O)O)C(C(=O)O)(O1)[C@H](OC(=O)/C=C/[C@@H](C)C[C@@H](C)CC)[C@H]2O)[C@@H](OC(C)=O)[C@H](C)Cc1ccccc1 (stereo partly specified)
8

* * *

- Tested on: Cryptococcus neoformans
- PROTOCOL NOTES: Concentration required to inhibit growth of MY 2061 strain of Cryptococcus neoformans
- Assay type: functional
ASSAY READOUT: MFC (µg/mL)
Kindly answer with a numeric value in µg/mL, unit omitted.

// solved cases for MFC follow
MOLECULE	MEASURED
C=C(CCC12OC(C(=O)O)C(O)(C(=O)O)C(C(=O)O)(O1)[C@H](OC(=O)OCCCCCCCCCCCOc1ccccc1)[C@H]2O)[C@@H](OC(C)=O)[C@H](C)Cc1ccccc1 (stereo partly drawn)	16
C=C(CCC12OC(C(=O)O)C(O)(C(=O)O)C(C(=O)O)(O1)[C@H](OC(=O)NCCCCCCCCCC)[C@H]2O)[C@@H](OC(C)=O)[C@H](C)Cc1ccccc1 (stereo partly drawn)	0.5

Now, please, on to the next molecule.
For the molecule C=C(CCC12OC(C(=O)O)C(O)(C(=O)O)C(C(=O)O)(O1)[C@H](OC(=O)CCCCCCCCCCC)[C@H]2O)[C@@H](OC(C)=O)[C@H](C)Cc1ccccc1 (stereo partly drawn) , give its measured MFC value.
0.12

* * *

Below is a list of entries, each paired with its recorded MFC value.
- Test system: Candida albicans
- PROTOCOL NOTES: Concentration required to inhibit growth of MY 1055 strain of Candida albicans
- Format: functional
API: value field is a number in µg/mL; no unit string.

COMPOUND	ENDPOINT UNIT	MFC
C=C(CCC12OC(C(=O)O)C(O)(C(=O)O)C(C(=O)O)(O1)[C@H](OC(=O)/C=C/[C@@H](C)C[C@@H](C)CC)[C@H]2O)[C@@H](OC(C)=O)[C@H](C)Cc1ccccc1 (stereo partly drawn)	µg/mL	16

With those in mind, consider the next compound.
Tell me its MFC given C=C(CCC12OC(C(=O)O)C(O)(C(=O)O)C(C(=O)O)(O1)[C@H](OCCCCCCCCCCCC)[C@H]2O)[C@@H](OC(C)=O)[C@H](C)Cc1ccccc1 (stereo partly drawn) as the entry.
4
